Kd values, listed per item
Target: FITC-labeled C-terminal peptide of HSP90a
Assay: fluorescence polarisation
property: Kd (µM)

# binder, measurement
data = [
    ("hAIPL1 R302L mutant, His6-tagged (natural protein) MDAALLLNVEGVKKTILHGGTGELPNFITGSRVIFHFRTMKCDEERTVIDDSRQVGQPMHIIIGNMFKLEVWEILLTSMRVHEVAEFWCDTIHTGVYPILSRSLRQMAQGKDPTEWHVHTCGLANMFAYHTLGYEDLDELQKEPQPLVFVIELLQVDAPSDYQRETWNLSNHEKMKAVPVLHGEGNRLFKLGRYEEASSKYQEAIICLRNLQTKEKPWEVQWLKLEKMINTLILNYCQCLLKKEEYYEVLEHTSDILRHHPGIVKAYYVRARAHAEVWNEAEAKADLQKVLELEPSMQKAVLRELRLLENRMAEKQEEERLRCRNMLSQGATQPPAEPPTEPPAQSSTEPPAEPPTAPSAELSAGPPAEPATEPPPSPGHSLQH", 27.2),
    ("hAIPL1 P376S mutant, His6-tagged (natural protein) MDAALLLNVEGVKKTILHGGTGELPNFITGSRVIFHFRTMKCDEERTVIDDSRQVGQPMHIIIGNMFKLEVWEILLTSMRVHEVAEFWCDTIHTGVYPILSRSLRQMAQGKDPTEWHVHTCGLANMFAYHTLGYEDLDELQKEPQPLVFVIELLQVDAPSDYQRETWNLSNHEKMKAVPVLHGEGNRLFKLGRYEEASSKYQEAIICLRNLQTKEKPWEVQWLKLEKMINTLILNYCQCLLKKEEYYEVLEHTSDILRHHPGIVKAYYVRARAHAEVWNEAEAKADLQKVLELEPSMQKAVRRELRLLENRMAEKQEEERLRCRNMLSQGATQPPAEPPTEPPAQSSTEPPAEPPTAPSAELSAGPPAEPATEPPSSPGHSLQH", 23),
    ("human aryl hydrocarbon receptor-interacting protein-like 1 (hAIPL1), full length, His6-tagged (natural protein) MDAALLLNVEGVKKTILHGGTGELPNFITGSRVIFHFRTMKCDEERTVIDDSRQVGQPMHIIIGNMFKLEVWEILLTSMRVHEVAEFWCDTIHTGVYPILSRSLRQMAQGKDPTEWHVHTCGLANMFAYHTLGYEDLDELQKEPQPLVFVIELLQVDAPSDYQRETWNLSNHEKMKAVPVLHGEGNRLFKLGRYEEASSKYQEAIICLRNLQTKEKPWEVQWLKLEKMINTLILNYCQCLLKKEEYYEVLEHTSDILRHHPGIVKAYYVRARAHAEVWNEAEAKADLQKVLELEPSMQKAVRRELRLLENRMAEKQEEERLRCRNMLSQGATQPPAEPPTEPPAQSSTEPPAEPPTAPSAELSAGPPAEPATEPPPSPGHSLQH", 20.8),
]
